test system: NCI-H522 lung; assay: NCI tumour cell line growth inhibition, 48 h
Below is a list of entries, each paired with its recorded GI50 value.

See these solved cases before continuing.
>>> df
                                   compound  property_name  recorded_measurement
0  CS(=O)(=O)N(c1cc(-c2ccc3ncnc(Nc4ccc(F)c(Cl)c4)c3c2)cnc1Cl)S(C)(=O)=O           GI50               1570 nM
1       CC/C(=C/c1ccc(OC)cc1OC)[N+](=O)[O-]           GI50               1790 nM
2  COC(=O)[C@H](Cc1cn(C)cn1)NC(=O)[C@H](Cc1ccccc1)NC(=O)Nc1cc(C(F)(F)F)cc(C(F)(F)F)c1           GI50              11700 nM
3  CC(C)(C)OC(=O)N[C@@H](Cc1ccccc1)C(=O)N(Cc1ccccc1)C1(C(=O)NCc2ccccc2)CCN(Cc2ccccc2)CC1           GI50               4020 nM
4  COc1cc(CNc2oc(-c3ccccc3)c(-c3ccccc3)c2C#N)cc(CN2CCN(C)CC2)c1O           GI50               1870 nM
5           N#CC1=C(N)NC(=O)NC12Nc1ccccc1N2           GI50           > 100000 nM

State the recorded GI50 for this entry: `CNC(=O)c1cncc(/C=C/c2ccccc2Cl)c1` > 25000 nM

State the recorded GI50 for this entry: N#Cc1cccc(C2C3=C(COC3=O)N(CCO)c3cc4c(cc32)OCO4)c1 (stereo not given) 561 nM

State the recorded GI50 for this entry: `O=C(Nc1cccc(C(F)(F)F)c1)Oc1ccc(Cl)c2cccnc12` 906 nM

State the recorded GI50 for this entry: `CCCCn1c(=O)c(/C=C/C(=O)/C=C/c2cc3ccccc3n(CCCC)c2=O)cc2ccccc21` 1860 nM

* * *

system: HOP-92 NSCLC; assay: NCI tumour cell line growth inhibition, 48 h
PROPERTY_NAME: TGI (µM)
Supply the numeric figure in µM, leaving out any unit text.

See these solved cases before continuing.
COMPOUND	MEASURED_TARGET	RECORDED_MEASUREMENT
COC(=O)N[C@H]1CCc2c(Cl)c(OC)c(OC)c(OC)c2-c2ccc(SC)c(=O)cc21	HOP-92 NSCLC	18.6
C=C1C(OC(C)=O)CC(OC(C)=O)C2(C)C(OC(C)=O)C(OC(C)=O)C3=C(C)C(OC(=O)/C=C/c4ccccc4)CC(C(OC(C)=O)C12)C3(C)C (centres undefined)	HOP-92 NSCLC	65.7
COC1(CC[C@H](C)COC2OC(CO)C(O)C(O)C2O)O[C@H]2C[C@H]3[C@@H]4CC=C5C[C@@H](OC6OC(CO)C(OC7OC(C)C(O)C(O)C7O)C(O)C6OC6OC(C)C(O)C(O)C6O)CC[C@]5(C)[C@H]4CC[C@]3(C)[C@H]2[C@@H]1C (some centres undefined)	HOP-92 NSCLC	6.2
Cc1cc(-c2cc(C(C)(C)C)c(O)c(C(C)(C)C)c2)c(C)cc1-c1cc(C(C)(C)C)c(O)c(C(C)(C)C)c1	HOP-92 NSCLC	38.2
CN1C2=Nc3n(c4ccccc4[n+]3C)CN2c2ccccc21	HOP-92 NSCLC	81.1
CS(=O)(=O)N(c1cc(-c2ccc3ncnc(Nc4ccc(F)c(Cl)c4)c3c2)cnc1Cl)S(C)(=O)=O	HOP-92 NSCLC	1.73
Nc1cccc2c1C(=O)c1cccc(NC(=O)c3ccccc3)c1C2=O	HOP-92 NSCLC	6.72
CCCn1cc2c3c(cccc31)C1C=C(C)CN(C)C1C2 (centres undefined)	HOP-92 NSCLC	37.9

Proceeding to the next compound to report its TGI.
State the recorded TGI for this entry: COC(=O)CC[C@]12C[C@]13CC[C@]1(C)C4C(C)C[C@]5(CC(C)C(=O)O5)OC4CC1(C)C3CCC2C(C)(C)O (some centres undefined) 65.1

* * *

test system: CCRF-CEM leukemia; assay: NCI tumour cell line growth inhibition, 48 h
Below is a list of entries, each paired with its recorded TGI value.

See these solved cases before continuing.
COMPOUND	TGI
O=c1c2c3c(sc2nc2n1N=C(c1ccc(Br)cc1)CS2)CCCC3	> 100 µM
CC[C@H](C)[C@H](NC(=O)c1cccn1C)C(=O)N(C)[C@H](C[C@@H](OC(C)=O)c1nc(C(=O)N[C@@H](Cc2ccccc2)C[C@H](C)C(=O)OC)cs1)C(C)C	> 33.3 µM
CC[C@H](NC(=O)OC(C)(C)C)C(=O)NCP(=O)(OCc1ccc([N+](=O)[O-])cc1)OCc1ccc([N+](=O)[O-])cc1	> 100 µM

Observed TGI on CCRF-CEM leukemia for `NC(=O)NN=C1Cc2ccccc2C1` , please. > 100 µM

Observed TGI on CCRF-CEM leukemia for `CC[PH+](CC)CC.[Cl][Au]` , please. 1.33 µM

Observed TGI on CCRF-CEM leukemia for `CCn1c2ccccc2c2cc(C(=O)c3ccc(C)c4ccccc34)ccc21` , please. > 100 µM

Observed TGI on CCRF-CEM leukemia for `CCCCNC(=O)Cn1c2ccc(Br)cc2c2nc3ccccc3nc21` , please. > 100 µM

* * *

tested on: SR leukemia; test: NCI tumour cell line growth inhibition, 48 h
PROPERTY_NAME: TGI (µM)
Supply the numeric figure in µM, leaving out any unit text.

STRUCTURE_SMILES_STRING	MEASURED_TARGET	TGI (µM)
Clc1ccc(/C(=C/c2ccccc2)Cn2ccnc2)cc1	SR leukemia	78.4
CN1C2=Nc3n(c4ccccc4[n+]3C)CN2c2ccccc21	SR leukemia	81.5

Proceeding to the next molecule to report its TGI.
State the recorded TGI for this entry: `CC(C)(C)OC(=O)N[C@@H](Cc1ccccc1)C(=O)N(Cc1ccccc1)C1(C(=O)NCc2ccccc2)CCN(Cc2ccccc2)CC1` 7.51

* * *

tested on: OVCAR-3 ovarian; assay: NCI tumour cell line growth inhibition, 48 h
PROPERTY_NAME: TGI

See these solved cases before continuing.
>>> df
                                   compound  property_name  recorded_measurement
0  O=c1/c(=N\Nc2ccccc2)c2cccc3ccc4cccc1c4c32            TGI              > 100 µM
1   CCn1ncc2c(=O)n3ncn(-c4ccc(Br)cc4)c3nc21            TGI              > 100 µM
2  CCN(CC)CCCCNc1c2ccc(Cl)cc2nc2ccc(OC)cc12            TGI               2.99 µM
3  CN1CCN(CCCOc2cc(O)c3c(=O)cc(-c4ccccc4)oc3c2)CC1            TGI               54.9 µM
4             CN(N)c1nc(N)c(C#N)c(C#N)c1C#N            TGI               > 10 µM

State the recorded TGI for this entry: COc1ccc(OC(C)C(=O)O)c2c(=O)ccccc12 (stereo unspecified) > 100 µM

* * *

Below is a list of entries, each paired with its recorded TGI value.
tested on: SNB-75 CNS; assay: NCI tumour cell line growth inhibition, 48 h

COMPOUND	TGI
CC(C)(C)N=NC(C)(C)N=C=O	> 100 µM

State the recorded TGI for this entry: COc1c(N2CCN(CN3C(=O)C(=Nc4ccc(S(=O)(=O)Nc5ncccn5)cc4)c4cc(Cl)ccc43)C(C)C2)c(F)cc2c(=O)c(C(=O)O)cn(C3CC3)c12 (centres undefined) > 50 µM

State the recorded TGI for this entry: `Nc1c(N2CCOCC2)c(=O)nc2[nH]/c(=C\c3ccccc3O)c(=O)n12` > 100 µM

State the recorded TGI for this entry: C=C1C(OC(C)=O)CC(OC(C)=O)C2(C)C(OC(C)=O)C(OC(C)=O)C3=C(C)C(OC(=O)/C=C/c4ccccc4)CC(C(OC(C)=O)C12)C3(C)C (centres undefined) 43.4 µM

State the recorded TGI for this entry: `O=C(c1ccc([N+](=O)[O-])cc1)N1CCCC1` > 100 µM

State the recorded TGI for this entry: `Cc1ccc(C)c(COCCOCn2cc(N3CCOCC3)c(=O)[nH]c2=O)c1` > 100 µM

* * *

system: NCI-H226 lung; assay: NCI tumour cell line growth inhibition, 48 h
PROPERTY_NAME: TGI (µM)
Supply the numeric figure in µM, leaving out any unit text.

State the recorded TGI for this entry: `C[CH2][Sn]([CH2]C)([O]C(=O)c1ccc(F)cc1)[O]C(=O)c1ccc(F)cc1` 29.4

State the recorded TGI for this entry: `Cc1ncc(CI)c(CI)c1O` 6.1

State the recorded TGI for this entry: CC(C)(C)OC(=O)Nc1ccc2c(c1)C(NC(=O)Nc1cccc(C#N)c1)CC(C)(C)O2 (stereo not given) 42.8

State the recorded TGI for this entry: `CC(C)=CCC[C@@H](C)C1=C(Nc2ccccc2F)C(O)=C(C)C(=O)C1=O` 24
